Test: Plasma concentration versus time of Compound I and metabolite Compound III in patients dosed QD or BID with Form B of Compound II plus fulvestrant
Assay type: in vivo, human
Settings: human, plasma, oral, 650 mg, 650 mg QD of Form B, Day 1, 12.0 h, Mean; read-out: Compound III Concentration
Measured parameter: concentration at 12 h (ng/mL)
All answers are understood in ng/mL, so give the number only.

Ask: Look up concentration at 12 h for this molecule: O=C1NCC2(CCCCC2)n2c1cc1cnc(Nc3ccc(N4CCNCC4)cn3)nc12
Reply: 5.12

====

Assay: Noncompartmental pharmacokinetic parameters (Cmax, Tmax, AUC, Racc) in QD and BID cohorts of Form B
Type: in vivo, human
Conditions: human, plasma, oral, 200 mg, Compound III; 200 mg BID of Form B; Cohort 8; Day 29; read-out: Tmax (Mean)
Measured parameter: Tmax (h)
Report only the number, with the unit h understood.

Ask: Need Tmax, item O=C1NCC2(CCCCC2)n2c1cc1cnc(Nc3ccc(N4CCNCC4)cn3)nc12
Reply: 6.33

====

Test: Noncompartmental pharmacokinetic parameters (Cmax, Tmax, AUC, Racc) in QD and BID cohorts of Form B
Assay type: in vivo, human
Details: human, plasma, oral, 150 mg, Compound I; 150 mg BID of Form B; Cohort 7; Day 1; read-out: AUClast (Mean)
Measured parameter: AUC(0-t) (ng·h/mL)
Write it as a number; the unit ng·h/mL goes unstated.

Ask: Requested read-out: AUC(0-t). Entry: CC(C)N1CCN(c2ccc(Nc3ncc4cc5n(c4n3)C3(CCCCC3)CNC5=O)nc2)CC1
Reply: 130

====

Assay: Plasma concentration versus time of Compound I and metabolite Compound III in patients dosed QD or BID with Form B of Compound II plus fulvestrant
Assay type: in vivo, human
Conditions: human, plasma, oral, 650 mg, Cohort 5, 650 mg QD of Form B, Day 29, 10.0 h; read-out: Compound I Concentration, Min
Measured parameter: concentration at 10 h (ng/mL)
State the answer as a number, implicitly in ng/mL.

Ask: Look up concentration at 10 h: CC(C)N1CCN(c2ccc(Nc3ncc4cc5n(c4n3)C3(CCCCC3)CNC5=O)nc2)CC1
Reply: 37.9

====

Test: Plasma concentration versus time of Compound I and metabolite Compound III in patients dosed QD or BID with Form B of Compound II plus fulvestrant
Format: in vivo, human
Details: human, plasma, oral, 100 mg, 100 mg BID of Form B, Day 1, 6.0 h, Mean; read-out: Compound III Concentration
Measured parameter: concentration at 6 h (ng/mL)
Entry rule: numbers only, all in ng/mL.

Ask: Return reported concentration at 6 h; argument: O=C1NCC2(CCCCC2)n2c1cc1cnc(Nc3ccc(N4CCNCC4)cn3)nc12
Reply: 0.471

====

Assay: Plasma concentration versus time of Compound I and metabolite Compound III in patients dosed QD or BID with Form B of Compound II plus fulvestrant
Type: in vivo, human
Conditions: human, plasma, oral, 100 mg, 100 mg BID of Form B, Day 1, 6.0 h, Median; read-out: Compound I Concentration
Measured parameter: concentration at 6 h
Enter the number, and then the unit.

Ask: Reported concentration at 6 h, molecule CC(C)N1CCN(c2ccc(Nc3ncc4cc5n(c4n3)C3(CCCCC3)CNC5=O)nc2)CC1 : ____
Reply: 5.12 ng/mL
